Sourced from patent US20120108501A1

test details: Pharmacokinetics of released PEGylated protease inhibitor following P.O. administration of prodrugs in rats
Format: in vivo, male Sprague-Dawley rats
applied conditions: mPEG5-atazanavir in plasma after PO administration of mPEG5-ATV or of the listed prodrug, rats (n = 4-5)
Kindly supply the reported MRT last Mean values for the records listed here.
Include the unit after the number when you answer.

Take a look at these entries with their results.
compound="COCCOCCOCCOCCOCCOC(=O)NC(C(=O)NC(Cc1ccccc1)C(CN(Cc1ccc(-c2ccccn2)cc1)NC(=O)C(NC(=O)OC)C(C)(C)C)OC(=O)COCCOC(=O)C(N)Cc1ccccc1)C(C)(C)C.Cl (stereo not drawn) [mPEG5-Atazanavir-CME-phenylalanine HCl]" measured_result="14.0 h"
compound="COCCOCCOCCOCCOCCOC(=O)NC(C(=O)NC(Cc1ccccc1)C(CN(Cc1ccc(-c2ccccn2)cc1)NC(=O)C(NC(=O)OC)C(C)(C)C)OC(=O)COCCOC(=O)C(N)CC(C)C)C(C)(C)C.Cl (stereo not drawn) [mPEG5-Atazanavir-CME-Leucine HCl, mPEG5-Atazanavir-CME-Leucine]" measured_result="16.5 h"

Fill in reported MRT last Mean for this entry: COCCOCCOCCOCCOCCOC(=O)N[C@H](C(=O)N[C@@H](Cc1ccccc1)[C@H](CN(Cc1ccc(-c2ccccn2)cc1)NC(=O)[C@@H](NC(=O)OC)C(C)(C)C)OC(=O)[C@H](Cc1ccccc1)NC(=O)[C@@H](N)CC(C)C)C(C)(C)C.Cl [Leu-Phe-mPEG5-Atazanavir HCl, Leu-Phe-mPEG5-Atazanavir Hydrochloride]
9.33 h
